Assay: amyloid nucleation score (Sup35N fusion, yeast selection) (log enrichment); library NNK3; higher = more nucleation; inactive = no reads after selection;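 further: zero at mode of non-aggregating sequences after 7 days selection at 30°C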
Value Type: amyloid nucleation score

[[record]]
substance = "VGVNWTFPMPLSTL"
endpoint_result = "inactive"

[[record]]
substance = "VVMWQRRLRYGPKERNNGKV"
endpoint_result = -0.067

[[record]]
substance = "RLIIYSFARSQL"
endpoint_result = "inactive"

[[record]]
substance = "QRKVSWHAGYSA"
endpoint_result = "inactive"

[[record]]
substance = "RFIGGTYH"
endpoint_result = "inactive"

[[record]]
substance = "MNTRAVSVEFRYCARYFCHA"
endpoint_result = 0.142

[[record]]
substance = "ILSITC"
endpoint_result = "inactive"

[[record]]
substance = "RTLNYFSHVCQSSINWSSLV"
endpoint_result = 0.743

[[record]]
substance = "CFVFWKSRQIYWMMMSRCVV"
endpoint_result = "inactive"

[[record]]
substance = "KLPVKGRMPVVF"
endpoint_result = "inactive"

[[record]]
substance = "IEVIYGV"
endpoint_result = "inactive"

[[record]]
substance = "TSYVEVGFLVSKYQTWWAVN"
endpoint_result = "inactive"

[[record]]
substance = "SRFYETDYSYFSIKSYDAGG"
endpoint_result = "inactive"

[[record]]
substance = "IYCYRLALF"
endpoint_result = "inactive"

[[record]]
substance = "RKEVLYSYRNHLK"
endpoint_result = "inactive"

[[record]]
substance = "DYVRKWS"
endpoint_result = "inactive"

[[record]]
substance = "CQHGGCALQHHTYRCEVGAG"
endpoint_result = "inactive"

[[record]]
substance = "GVKCPKKTNRQWGIVALMRP"
endpoint_result = "inactive"


---

Experiment: amyloid nucleation score (Sup35N fusion, yeast selection) (log enrichment); library NNK2; higher = more nucleation; inactive = no reads after selection
Value Type: amyloid nucleation score

[[record]]
entry_sequence = "MSFNGCFDRMRREDRYEI"
value_type = "amyloid nucleation score"
endpoint_result = 0.16

[[record]]
entry_sequence = "IPYLNFDLYWLPVI"
value_type = "amyloid nucleation score"
endpoint_result = -0.792

[[record]]
entry_sequence = "RVKRRMSFVVAVAQVMGLVG"
value_type = "amyloid nucleation score"
endpoint_result = 0.475

[[record]]
entry_sequence = "PSSDRMSKCVFRVRNCQEAL"
value_type = "amyloid nucleation score"
endpoint_result = 0.157

[[record]]
entry_sequence = "YYTLWVTLTRLTNC"
value_type = "amyloid nucleation score"
endpoint_result = -0.288

[[record]]
entry_sequence = "GLTLMWALFGSVYGLRSGMG"
value_type = "amyloid nucleation score"
endpoint_result = 0.89

[[record]]
entry_sequence = "LDIYYFKKNSWAFHGSAGYP"
value_type = "amyloid nucleation score"
endpoint_result = 1.87

[[record]]
entry_sequence = "EVCMWIPHTAVRLYQS"
value_type = "amyloid nucleation score"
endpoint_result = 1.15

[[record]]
entry_sequence = "DIPTMVNGILYFTGYDPRVS"
value_type = "amyloid nucleation score"
endpoint_result = -0.647


---

Test: amyloid nucleation score (Sup35N fusion, yeast selection) (log enrichment); library NNK1; higher = more nucleation; inactive = no reads after selection
Form field: amyloid nucleation score (one value per entry).
Value Type: amyloid nucleation score

[[record]]
substance = "GSCSYSYCTNFVRTMYGAYG"
endpoint_result = 0.379

[[record]]
substance = "FGMWYSVRISTSLVYVMGVL"
endpoint_result = -0.23

[[record]]
substance = "KGTGRLIRLASAWAGMGMHL"
endpoint_result = -0.332

[[record]]
substance = "ARTGCHKVYLAAACSYGRFS"
endpoint_result = 0.188

[[record]]
substance = "MGKNMVANWILHHRHSQ"
endpoint_result = -0.343

[[record]]
substance = "KVFGTRPVRYETCRFLRLRS"
endpoint_result = -0.013

[[record]]
substance = "RSRLLSFGVNGGWYIKMLIS"
endpoint_result = -0.028

[[record]]
substance = "AYVDAL"
endpoint_result = 1.53

[[record]]
substance = "FRDSTET"
endpoint_result = 0.495

[[record]]
substance = "CFPSSVFVGCIFF"
endpoint_result = 7.53

[[record]]
substance = "PAYGTNIVAIYLWH"
endpoint_result = 3.59

[[record]]
substance = "SVLRRQDFTKLLMFRSGPLG"
endpoint_result = 0.424

[[record]]
substance = "QYRHRGRQHLMGGNAQCPYV"
endpoint_result = 0.477

[[record]]
substance = "HKRAEKHNHFITWSIQSLRA"
endpoint_result = 0.653

[[record]]
substance = "TNVFGILYFEYFLVLDG"
endpoint_result = 0.208

[[record]]
substance = "TRLGYFNFGSLHVSLWDFML"
endpoint_result = 0.6

[[record]]
substance = "KFDLYRTWCSSLRFGRYWRV"
endpoint_result = 1.23

[[record]]
substance = "LIINGD"
endpoint_result = 0.609

[[record]]
substance = "TTINIRYPIYSVVMCWYRLE"
endpoint_result = 5.51

[[record]]
substance = "YRMGLGS"
endpoint_result = -0.455

[[record]]
substance = "LFREQW"
endpoint_result = 0.228

[[record]]
substance = "SRATSYKFSTGRCCWTGTVK"
endpoint_result = 0.072

[[record]]
substance = "WNYIEGASFSRMGEASNAPG"
endpoint_result = -0.944

[[record]]
substance = "RYPTGAKKLQMLNDVLMLYR"
endpoint_result = -0.479

[[record]]
substance = "VREGPRSRSGG"
endpoint_result = 0.149

[[record]]
substance = "AVFIGCVNAGS"
endpoint_result = 0.621

[[record]]
substance = "LSSVNGVLGRIGHLVAPSSF"
endpoint_result = -0.066

[[record]]
substance = "VSCLNLIVSWYYANFGN"
endpoint_result = -0.17

[[record]]
substance = "FNYLICAVDSRTLNSW"
endpoint_result = 4.7

[[record]]
substance = "VKRHNLLCWRFMDFTINLGG"
endpoint_result = 4.01

[[record]]
substance = "KVVTGLIYFWCIWCFGTLRV"
endpoint_result = 0.431

[[record]]
substance = "NVRRLIFIMLKLDAICYWSS"
endpoint_result = -0.695

[[record]]
substance = "GFFFVFHYSGTHGLICCYTL"
endpoint_result = -0.22


Values from the supplement of paper PMC12042874
